measurement-target: T1, EsCas13d, nuclease-dead (Eubacterium siraeum, UniProt B0MS50, R295A;H300A;R849A;H854A)
T1 sequence: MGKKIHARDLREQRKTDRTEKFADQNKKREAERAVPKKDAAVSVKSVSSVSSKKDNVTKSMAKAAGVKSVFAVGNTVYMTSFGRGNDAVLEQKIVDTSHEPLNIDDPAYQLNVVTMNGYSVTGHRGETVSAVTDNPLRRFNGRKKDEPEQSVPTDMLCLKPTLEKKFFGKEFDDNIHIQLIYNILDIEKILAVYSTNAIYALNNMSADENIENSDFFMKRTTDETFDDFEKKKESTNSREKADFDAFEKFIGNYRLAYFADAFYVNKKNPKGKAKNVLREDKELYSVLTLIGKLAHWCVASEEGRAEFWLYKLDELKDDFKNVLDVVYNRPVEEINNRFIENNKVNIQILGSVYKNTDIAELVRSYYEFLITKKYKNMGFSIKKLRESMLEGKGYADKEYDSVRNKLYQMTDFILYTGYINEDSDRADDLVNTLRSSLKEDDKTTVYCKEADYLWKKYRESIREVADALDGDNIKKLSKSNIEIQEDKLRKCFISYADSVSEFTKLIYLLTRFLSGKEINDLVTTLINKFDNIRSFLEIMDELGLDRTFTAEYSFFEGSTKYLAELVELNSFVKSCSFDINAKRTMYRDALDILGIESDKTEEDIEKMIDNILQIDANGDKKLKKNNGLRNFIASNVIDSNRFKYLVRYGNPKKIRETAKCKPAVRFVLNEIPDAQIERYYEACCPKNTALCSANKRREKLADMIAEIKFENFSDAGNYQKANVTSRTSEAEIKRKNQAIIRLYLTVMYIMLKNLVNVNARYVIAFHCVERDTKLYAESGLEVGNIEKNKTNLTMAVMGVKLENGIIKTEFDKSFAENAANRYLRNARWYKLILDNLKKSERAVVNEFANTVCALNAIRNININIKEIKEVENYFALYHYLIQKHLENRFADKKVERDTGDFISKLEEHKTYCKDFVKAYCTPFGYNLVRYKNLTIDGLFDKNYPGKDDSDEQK
method: crRNA (strand 1, pre-loaded); Mg2+; 40 mM Tris-HCl pH 7.5, 150 mM NaCl, 6 mM MgCl2, 1 mM DTT, 0.1% Tween-20, 0.2 mg/ml BSA; 25 C; 10 min per concentration, then washed
condition-parameters: tags: His6-TwinStrep-SUMO cleaved; N-terminal SNAP kept (SNAP-Surface 488); label: 3' end held by stalled T7 RNA polymerase
recorded-metric: Kd (nM)
Please give a number only; it is taken to be in nM.

Query block: Tell me the measured Kd of target 1 C4G,A9G (mixed) RNA 1: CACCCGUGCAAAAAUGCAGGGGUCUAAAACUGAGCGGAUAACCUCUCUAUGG RNA 2: GGGAAUGGAUCCACAUCUACGAAUUCGUACCAUAGAGAGGUUGUCCGGUCACCGAGAUCGGAAGAGCACACGU , please.
Result block: 3.9

Query block: Similarly, target 2 MT 5'PFS GUU 3'PFS ACU (mixed) RNA 1: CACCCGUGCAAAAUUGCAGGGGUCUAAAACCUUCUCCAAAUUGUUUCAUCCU RNA 2: GGGAAUGGAUCCACAUCUACGAAUUCGUUAGGAUGAAACAAUUUGGAGAAGACUAGAUCGGAAGAGCACACGU ?
Result block: 15.5

Query block: Similarly, target 1 MT 5'PFS UCA 3'PFS UGU (mixed) RNA 1: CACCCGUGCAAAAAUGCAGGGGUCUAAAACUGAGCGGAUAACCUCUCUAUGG RNA 2: GGGAAUGGAUCCACAUCUACGAAUUCUCACCAUAGAGAGGUUAUCCGCUCAUGUAGAUCGGAAGAGCACACGU ?
Result block: 28.5

Query block: Similarly, target 2 MT 5'PFS AAA 3'PFS CUC (mixed) RNA 1: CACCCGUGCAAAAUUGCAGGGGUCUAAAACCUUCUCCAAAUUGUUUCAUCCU RNA 2: GGGAAUGGAUCCACAUCUACGAAUUCAAAAGGAUGAAACAAUUUGGAGAAGCUCAGAUCGGAAGAGCACACGU ?
Result block: 6.5

Origin of measurements: paper PMC10786891
